Values from PubChem BioAssay (NCI)

System: HCT-116 colon
EXPERIMENTAL DETAILS: NCI tumour cell line growth inhibition, 48 h
Measured GI50 values are reported for all entries that follow.

>  <MOLECULE>
CCC1C(C)C=NN1c1nc(N)nc(C(C#N)=Nc2ccc(N(C)C)cc2)n1 (stereo not drawn)

>  <GI50>
16.5 µM

$$$$
>  <MOLECULE>
CC(=O)Oc1ccc2c(c1)[C@@]1(C)CCCC(C)(C)[C@@H]1CC2

>  <GI50>
18.4 µM

$$$$
>  <MOLECULE>
Cc1ccc(Nc2cc(Cl)c([N+](=O)[O-])cc2[N+](=O)[O-])cc1

>  <GI50>
2.59 µM

$$$$

* * *

Measured TGI values are reported for all entries that follow.
Tested on: NCI-H23 lung
EXPERIMENTAL DETAILS: NCI tumour cell line growth inhibition, 48 h
ENDPOINT: TGI

>  <MOLECULE>
CNCCCNC(=S)Cn1cc(C)c(=O)[nH]c1=O

>  <OBSERVED MEASUREMENT>
> 81.8 µM

$$$$
>  <MOLECULE>
CC(=O)c1c(SCCN2CCOCC2)n(-c2ccccc2)c(=S)n(-c2ccccc2)c1=O

>  <OBSERVED MEASUREMENT>
> 64.5 µM

$$$$
>  <MOLECULE>
CC(=O)OC1OC(c2ccoc2)C[C@@]12C1CCC3O[C@]3(C)[C@]1(C)[C@H](OC(C)=O)[C@H](OC(C)=O)[C@H]2C (stereo partly drawn)

>  <OBSERVED MEASUREMENT>
> 37.5 µM

$$$$

* * *

System: KM12 colon
EXPERIMENTAL DETAILS: NCI tumour cell line growth inhibition, 48 h; in the data active = GI50 below about 0.43 µM; inactive = the rest
Outcomes: label 1 (active), label 0 (inactive)

>  <COMPOUND>
COc1cc(Cl)cc(-c2nn(-c3cccc(NC(=O)Nc4cccc(C(F)(F)F)c4)c3)cc2-c2ccncc2)c1

>  <TARGET SYSTEM>
KM12 colon

>  <ANSWER LABEL>
label 0

$$$$
>  <COMPOUND>
Cc1cc(-c2nnc(/C=C/c3ccc4c(c3)OCO4)o2)n[nH]1

>  <TARGET SYSTEM>
KM12 colon

>  <ANSWER LABEL>
label 0

$$$$
>  <COMPOUND>
CNC(=O)c1cc(Oc2cccc3nc(NC(=O)Nc4cc(C(F)(F)F)cc(C(F)(F)F)c4)ccc23)ccn1

>  <TARGET SYSTEM>
KM12 colon

>  <ANSWER LABEL>
label 0

$$$$
>  <COMPOUND>
N#CC1=C(N)NC(=S)NC1c1ccc(-c2ccc(-c3nc4ccccc4o3)cc2)s1 (configuration not stated)

>  <TARGET SYSTEM>
KM12 colon

>  <ANSWER LABEL>
label 0

$$$$
>  <COMPOUND>
COCCOCCOCc1n(Cc2ccc3ccccc3c2)c2ccccc2[n+]1Cc1ccc2ccccc2c1

>  <TARGET SYSTEM>
KM12 colon

>  <ANSWER LABEL>
label 1

$$$$
>  <COMPOUND>
N#Cc1ccc(-c2c(-c3ncn[nH]3)sc(N3CCOCC3)c2C#N)c(F)c1

>  <TARGET SYSTEM>
KM12 colon

>  <ANSWER LABEL>
label 0

$$$$
>  <COMPOUND>
CC[C@@]1(OC(=O)CN(C)C)C(=O)OCc2c1cc1n(c2=O)Cc2cc3c(N)cccc3nc2-1

>  <TARGET SYSTEM>
KM12 colon

>  <ANSWER LABEL>
label 1

$$$$

* * *

System: 786-0 renal
EXPERIMENTAL DETAILS: NCI tumour cell line growth inhibition, 48 h
Measured GI50 values are reported for all entries that follow.
ENDPOINT: GI50

>  <COMPOUND>
CC1=C(/C=C/C(=O)CC(=O)/C=C/C2=C(C)CCCC2(C)C)C(C)(C)CCC1

>  <OBSERVED MEASUREMENT>
25200 nM

$$$$
>  <COMPOUND>
Cc1cc(C(=O)Nc2n[nH]c3ccccc23)n[nH]1

>  <OBSERVED MEASUREMENT>
> 100000 nM

$$$$
>  <COMPOUND>
CCC1C(C)C=NN1c1nc(N)nc(C(C#N)=Nc2ccc(N(C)C)cc2)n1 (stereo unspecified)

>  <OBSERVED MEASUREMENT>
17400 nM

$$$$
>  <COMPOUND>
O=C(CSCC(=O)N/N=C/c1ccccc1O)N/N=C\c1ccccc1O

>  <OBSERVED MEASUREMENT>
1950 nM

$$$$
>  <COMPOUND>
CN(C)C(=O)OCc1nc2c(N3CCOCC3)nc(-c3ccccc3)nc2n1C

>  <OBSERVED MEASUREMENT>
892 nM

$$$$
>  <COMPOUND>
CNCC/C=C1\c2cc3c(cc2-c2c1c1cc(OC)c(OC)cc1c(=O)n2C)OCO3

>  <OBSERVED MEASUREMENT>
587 nM

$$$$

* * *

Test system: CCRF-CEM leukemia
EXPERIMENTAL DETAILS: NCI tumour cell line growth inhibition, 48 h
ENDPOINT: TGI

>  <COMPOUND>
CN(C)C1(N(C)C)Oc2c(c(=O)n(C)c(=O)n2C)C(c2ccc(C(F)(F)F)cc2)C1(F)F (stereo not drawn)

>  <TARGET SYSTEM>
CCRF-CEM leukemia

>  <ENDPOINT>
TGI

>  <OBSERVED MEASUREMENT>
> 100 µM

$$$$
>  <COMPOUND>
Cc1ccc(/C=C/C(=N/NC(=O)N/N=C(/C=C/c2ccc(C)cc2)C(C)C)C(C)C)cc1

>  <TARGET SYSTEM>
CCRF-CEM leukemia

>  <ENDPOINT>
TGI

>  <OBSERVED MEASUREMENT>
> 10 µM

$$$$
>  <COMPOUND>
CNC(=O)c1cc(Oc2cccc3nc(NC(=O)Nc4cc(C(F)(F)F)cc(C(F)(F)F)c4)ccc23)ccn1

>  <TARGET SYSTEM>
CCRF-CEM leukemia

>  <ENDPOINT>
TGI

>  <OBSERVED MEASUREMENT>
> 100 µM

$$$$

* * *

Tested on: TK-10 renal
EXPERIMENTAL DETAILS: NCI tumour cell line growth inhibition, 48 h

>  <MOLECULE>
COc1ccc2c(c1)c1c(n2CCN2CCOCC2)-c2cccc(OC)c2CC1

>  <TGI>
> 100 µM

$$$$
>  <MOLECULE>
O=C(Cc1nc2sc3c(c2c(=O)[nH]1)CCCC3)Nc1ccccc1

>  <TGI>
> 100 µM

$$$$
>  <MOLECULE>
CN(CCO)Cc1ncccc1O

>  <TGI>
> 100 µM

$$$$
>  <MOLECULE>
CC(C)c1ccc(C2NC(=S)NC3=C2c2ccccc2C3=O)cc1 (configuration not stated)

>  <TGI>
> 57.1 µM

$$$$
>  <MOLECULE>
COc1cc(-n2cc(-c3ccccc3)[nH]c2=O)cc(OC)c1OC

>  <TGI>
> 100 µM

$$$$
>  <MOLECULE>
CC1=NN(c2nc(N)nc(CSc3cc(Cl)c(C)cc3S(N)(=O)=O)n2)C(C)(C)C1

>  <TGI>
> 10 µM

$$$$
>  <MOLECULE>
Cc1ccc(S(=O)(=O)N2CCCSCCSCCCN(S(=O)(=O)c3ccc(C)cc3)CC2)cc1

>  <TGI>
> 100 µM

$$$$
